experiment: Acidic dissociation constants (pKa) of strong and weak organic acids; assay type: physicochemical; conditions: water; in H2O at ~15-20° C.; Table 2 weak organic acids; read-out: Median pKa
reportedMetric: pKa
// return a plain number; no unit text

Per the record, O=c1[nH]c(=O)c2[nH]c(=O)[nH]c2[nH]1 has pKa of 5.6
